target: FXI; assay: Kd (SPR)
measurement_type: Kd (nM)
Provide the reading as a plain figure in nM.

Recorded Kd, per entry:
INSERT INTO results (binder, result_value) VALUES
  ('unnamed (protein) chain 1: EVQLLESGGGLVQPGGSLRLSCAASGFTFSQYGMDWVRQAPGKGLEWVSGIGPSGGSTVYADSVKGRFTISRDNSKNTLYLQMNSLRAEDTAVYYCTRDGRSYYYAFDVWGQGTTVTVSS chain 2: DIQMTQSPSSLSASVGDRVTITCQASQDISNYLNWYQQKPGKAPKLLIYDASNLETGVPSRFSGSGSGTDFTFTISSLQPEDIATYYCQQADSFPVTFGGGTKVEIK', 750),
  ('unnamed (protein) chain 1: EVQLLESGGGLVQPGGSLRLSCAASGFTFSQYGMDWVRQAPGKGLEWVSGIGPSGGSTVYADSVKGRFTISRDNSKNTLYLQMNSLRAEDTAVYYCTRDGPAWYYAFDYWGQGTTVTVSS chain 2: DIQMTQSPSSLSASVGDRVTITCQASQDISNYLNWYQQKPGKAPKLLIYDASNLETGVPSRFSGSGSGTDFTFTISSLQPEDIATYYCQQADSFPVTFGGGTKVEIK', 78.2);

Kindly note the recorded Kd for unnamed (protein) chain 1: EVQLLESGGGLVQPGGSLRLSCAASGFTFSSYAMDWVRQAPGKGLEWVSGISADGGSTVYADSVKGRFTISRDNSKNTLYLQMNSLRAEDTAVYYCTRDGPAYYYGFDVWGQGTTVTVSS chain 2: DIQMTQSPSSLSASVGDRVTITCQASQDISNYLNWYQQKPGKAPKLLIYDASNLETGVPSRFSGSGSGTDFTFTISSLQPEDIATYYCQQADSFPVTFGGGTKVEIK , which is 485
